Measured pEC50, listed per entry for reference.
System: MV-3 RFP cells
ASSAY_COMMENT: T-cell TCB MV3 killing assay
Type: cell-based, human
STUDY_CONDITIONS: isomer A; primary human T-cells + MCSP-TCB on MV-3 RFP cells, imaging over 120 hours; read-out: MSCP TCB killing MV-3 cells 5 d EC50
Description: All culturing steps are executed at 5% CO2, 37° C. and 95% humidity. MV-3 RFP cells are cultured in MV-3 medium (DMEM+10% FBS, 1× PenStrep and 0.5 μg/mL Puromycin) for at least 3 weeks. Cultured MV-3 cells at 80% confluency are washed once with PBS−− and trypsinized until detached. Cells are then counted and resuspended to 1*10^5 cells/mL in T-cell medium (RPMI 1640+5% human serum+1 mM Sodium Pyruvate+50 μM 2-mercaptoethanol and 1× Pen-Strep). […]
API: returns pEC50 as number; meaning -log10 of concentration in mol/L.

[[record]]
compound = "CC(C)(c1nnc(-c2cc3c(cc2F)C(F)(F)CC(N)C(=O)N3Cc2ccc(Oc3ccccc3)cc2)o1)S(C)(=O)=O (racemic)"
system = "MV-3 RFP cells"
observation_type = "pEC50"
experimental_result = 6.43


pEC50 on MV-3 RFP cells for COC(F)(c1nnc(-c2cc3c(cc2F)C(F)(F)C[C@H](N)C(=O)N3Cc2ccc(OC(F)(F)F)cc2)o1)C(F)(F)F (single isomer, unassigned) is 7.16
